Documented pEC50 across a set of compounds
Molecular target: Neuronal acetylcholine receptor; alpha3/beta4 (Rattus norvegicus, UniProt P04757+P12392)
Sequence (P04757 whole entry): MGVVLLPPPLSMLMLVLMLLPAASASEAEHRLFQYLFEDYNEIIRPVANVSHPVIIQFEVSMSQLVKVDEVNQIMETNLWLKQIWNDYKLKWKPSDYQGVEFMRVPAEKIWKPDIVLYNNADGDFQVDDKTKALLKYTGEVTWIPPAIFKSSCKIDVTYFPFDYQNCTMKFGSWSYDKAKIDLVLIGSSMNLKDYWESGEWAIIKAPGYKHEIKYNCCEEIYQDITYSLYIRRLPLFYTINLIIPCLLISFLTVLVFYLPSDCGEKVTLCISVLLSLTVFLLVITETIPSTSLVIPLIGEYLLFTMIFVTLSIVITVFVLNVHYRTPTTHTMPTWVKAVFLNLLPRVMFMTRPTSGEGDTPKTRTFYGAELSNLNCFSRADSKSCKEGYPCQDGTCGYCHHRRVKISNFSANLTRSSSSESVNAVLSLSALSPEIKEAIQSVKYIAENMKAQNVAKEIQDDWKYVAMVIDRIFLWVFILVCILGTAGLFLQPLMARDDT
Sequence (P12392 whole entry): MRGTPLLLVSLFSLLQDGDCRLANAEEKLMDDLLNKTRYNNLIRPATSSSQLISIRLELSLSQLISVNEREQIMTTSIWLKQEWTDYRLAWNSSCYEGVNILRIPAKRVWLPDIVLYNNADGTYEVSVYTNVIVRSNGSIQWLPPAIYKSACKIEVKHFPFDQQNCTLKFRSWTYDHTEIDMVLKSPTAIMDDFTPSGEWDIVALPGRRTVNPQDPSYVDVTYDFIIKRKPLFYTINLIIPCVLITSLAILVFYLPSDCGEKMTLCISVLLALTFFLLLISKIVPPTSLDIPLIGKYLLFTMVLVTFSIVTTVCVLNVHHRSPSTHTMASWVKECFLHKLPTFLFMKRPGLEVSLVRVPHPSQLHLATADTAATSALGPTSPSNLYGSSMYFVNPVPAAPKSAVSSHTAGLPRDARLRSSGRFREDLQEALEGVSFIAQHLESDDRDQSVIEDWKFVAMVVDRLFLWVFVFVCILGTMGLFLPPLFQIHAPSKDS
Experiment: Agonist activity at rat alpha3beta4 nACHR expressed in HEK293 cells assessed as […] by liquid scintillation counting analysis
Format: cell-based
Details: read-out: EC50
pEC50: −log10 of the molar value.

compound smiles: c1cnc2cc3c(cc2n1)[C@@H]1CNC[C@H]3C1
pEC50: 4.68
//
compound smiles: OCCCCC#Cc1cncc(OC[C@@H]2CCN2)c1
pEC50: 4.52

---

Species on record: Rattus norvegicus
Assay: Selectivity ratio of Ki for rat alpha3beta4 nACHR to rat alpha4beta2 nACHR
measurement type: Ratio Ki

compound smiles: Cc1ncc(C#CCCCCO)cc1OC[C@@H]1CCN1
test value: 70000
--
compound smiles: CCCCC#Cc1cnc(C)c(OC[C@@H]2CCN2)c1
test value: 19000
--
compound smiles: Cc1ncc(C#CC2CC2)cc1OC[C@@H]1CCN1
test value: 16000
--
compound smiles: OCCCCC#Cc1cncc(OC[C@@H]2CCN2)c1
test value: 31000
--
compound smiles: Cc1ncc(C#CCCCCCl)cc1OC[C@@H]1CCN1
test value: 17000
